- Tgt: Somatostatin receptor type 5 (Homo sapiens)
- Sequence (P35346 whole entry): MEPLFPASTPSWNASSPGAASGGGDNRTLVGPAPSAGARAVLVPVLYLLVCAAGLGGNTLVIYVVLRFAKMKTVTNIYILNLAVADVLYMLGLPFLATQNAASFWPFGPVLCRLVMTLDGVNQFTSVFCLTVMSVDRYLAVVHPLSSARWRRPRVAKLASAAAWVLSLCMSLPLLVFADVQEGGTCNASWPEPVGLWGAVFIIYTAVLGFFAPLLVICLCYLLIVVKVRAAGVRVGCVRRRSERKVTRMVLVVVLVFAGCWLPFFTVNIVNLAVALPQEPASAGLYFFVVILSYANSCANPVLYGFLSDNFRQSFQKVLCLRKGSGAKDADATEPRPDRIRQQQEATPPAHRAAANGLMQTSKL
- Test details: In vitro inhibition of [125I][Leu8,D-Trp22,Tyr25] somatostatin 28 binding to human somatostatin receptor type 5 expressed in CHO-K1 cells; (n=3)
- Assay type: cell-based
Threshold-based label: IC50 under 300 nM gives TRUE, IC50 not under 300 nM gives FALSE.

Ask | Problem: For the compound "C[C@@H](O)[C@H](NC(=O)[C@@H]1CSSC[C@H](NC(=O)[C@@H](Cc2ccccc2)NC[C@]2(O)OC[C@H](O)[C@@H](O[C@@H]3O[C@@H](CO)[C@@H](O)[C@H](O)[C@@H]3O)[C@@H]2O)C(=O)N[C@@H](Cc2ccc(O)c(I)c2)C(=O)N[C@H](Cc2c[nH]c3ccccc23)C(=O)N[C@@H](CCCCN)C(=O)N[C@@H]([C@@H](C)O)C(=O)N1)C(=O)O" , is IC50 under 300 nM?
Reply | TRUE

Ask | Problem: For the compound "C[C@@H](O)[C@H](NC(=O)[C@@H]1CSSC[C@H](NC(=O)[C@@H](Cc2ccccc2)NC[C@@]2(O)OC[C@@H](O)[C@@H](O)[C@@H]2O)C(=O)N[C@@H](Cc2ccc(O)c(I)c2)C(=O)N[C@H](Cc2c[nH]c3ccccc23)C(=O)N[C@@H](CCCCN)C(=O)N[C@@H]([C@@H](C)O)C(=O)N1)C(=O)O" , is IC50 under 300 nM?
Reply | FALSE

Ask | Problem: For the compound "C[C@@H](O)[C@H](NC(=O)[C@@H]1CSSC[C@H](NC(=O)[C@@H](Cc2ccccc2)NC(=O)CCS[C@@H]2O[C@@H](CO)[C@H](O)[C@H](O)[C@@H]2O)C(=O)N[C@@H](Cc2ccc(O)c(I)c2)C(=O)N[C@H](Cc2c[nH]c3ccccc23)C(=O)N[C@@H](CCCCN)C(=O)N[C@@H]([C@@H](C)O)C(=O)N1)C(=O)O" , is IC50 under 300 nM?
Reply | FALSE

Ask | Problem: For the compound "C[C@@H](O)[C@@H]1NC(=O)[C@H](CCCCN)NC(=O)[C@@H](Cc2c[nH]c3ccccc23)NC(=O)[C@H](Cc2ccc(O)c(I)c2)NC(=O)[C@@H](NC(=O)[C@@H](Cc2ccccc2)NC[C@]2(O)OC[C@H](O)[C@@H](O)[C@@H]2O)CSSC[C@@H](C(=O)N[C@H](CO)[C@@H](C)O)NC1=O" , is IC50 under 300 nM?
Reply | TRUE

Ask | Problem: For the compound "C[C@@H](O)[C@H](NC(=O)[C@@H]1CSSC[C@H](NC(=O)[C@@H](Cc2ccccc2)NC[C@]2(O)OC[C@H](O)[C@@H](O[C@@H]3O[C@@H](CO)[C@@H](O[C@@H]4O[C@@H](CO)[C@@H](O)[C@H](O)[C@@H]4O)[C@H](O)[C@@H]3O)[C@@H]2O)C(=O)N[C@@H](Cc2ccc(O)c(I)c2)C(=O)N[C@H](Cc2c[nH]c3ccccc23)C(=O)N[C@@H](CCCCN)C(=O)N[C@@H]([C@@H](C)O)C(=O)N1)C(=O)O" , is IC50 under 300 nM?
Reply | FALSE
